Overview of recorded conversion to 1,5-cz-[Ln(Lig)], Er^III for various compounds
- protocol.description: Formation of 1,5-cz-[Ln(Lig)] from Lig and Ln^III ions (metal dependent click-zip), MOPS/NaOH buffer pH 7.0, analytical HPLC (Charts 1, 2)
- measurement.context: Er^III; after 1 week at 80° C.; MOPS/NaOH buffer pH 7.0
The answer consists of two parts: a number and, after it, its unit.

The following compounds have reported results that may help.
Lab book: conversion to 1,5-cz-[Ln(Lig)], Er^III of C#Cc1cccc(CN2CCN(CC(=O)O)CCN(Cc3cc(C(=O)OC)cc(CN=[N+]=[N-])n3)CCN(CC(=O)O)CC2)n1 [TD1092] noted as 0%

Lab book: conversion to 1,5-cz-[Ln(Lig)], Er^III of C#Cc1cccc(CN2CCN(CC(N)=O)CCN(Cc3cc(-c4ccccc4)cc(CN=[N+]=[N-])n3)CCN(CC(N)=O)CC2)n1 [TD779] noted as 0%

Lab book: conversion to 1,5-cz-[Ln(Lig)], Er^III of C#Cc1cccc(CN2CCN(CC(=O)O)CCN(Cc3cccc(CN=[N+]=[N-])n3)CCN(CP(=O)(O)O)CC2)n1 [TD714] noted as 93%

Lab book: conversion to 1,5-cz-[Ln(Lig)], Er^III of C#Cc1cccc(CN2CCN(CC(=O)O)CCN(Cc3cc(Cl)cc(CN=[N+]=[N-])n3)CCN(CC(=O)O)CC2)n1 [TD764] noted as 95%

Lab book: conversion to 1,5-cz-[Ln(Lig)], Er^III of C#Cc1cccc(CN2CCN(CC(=O)O)CCN(Cc3cc(-c4ccc(C(=O)O)cc4)cc(CN=[N+]=[N-])n3)CCN(CC(=O)O)CC2)n1 [TD742] noted as 94%

Lab book: conversion to 1,5-cz-[Ln(Lig)], Er^III of C#Cc1cccc(CN2CCN(CP(=O)(O)OCC)CCN(Cc3cccc(CN=[N+]=[N-])n3)CCN(CP(=O)(O)OCC)CC2)n1 [TD582] noted as 74%

Continue with the next compound.
Lab book: conversion to 1,5-cz-[Ln(Lig)], Er^III of C#Cc1cccc(CN2CCN(CC(=O)O)CCN(Cc3cccc(CN=[N+]=[N-])n3)CCN(CC(=O)O)CC2)n1 [TD556] noted as 95%

----------
- protocol.description: Formation of 1,5-cz-[Ln(Lig)] from Lig and Ln^III ions (metal dependent click-zip), MOPS/NaOH buffer pH 7.0, analytical HPLC (Charts 1, 2)
- measurement.context: Yb^III; after 1 hour at 80° C.; MOPS/NaOH buffer pH 7.0
measure.name: conversion to 1,5-cz-[Ln(Lig)], Yb^III (%)
Give your result in % as a bare value.

Lab book: conversion to 1,5-cz-[Ln(Lig)], Yb^III of C#Cc1cccc(CN2CCN(CC(=O)O)CCN(Cc3cc(C(F)(F)F)cc(CN=[N+]=[N-])n3)CCN(CC(=O)O)CC2)n1 noted as 53

Lab book: conversion to 1,5-cz-[Ln(Lig)], Yb^III of C#Cc1cccc(CN2CCN(CC(N)=O)CCN(Cc3cc(-c4ccccc4)cc(CN=[N+]=[N-])n3)CCN(CC(N)=O)CC2)n1 noted as 9

Lab book: conversion to 1,5-cz-[Ln(Lig)], Yb^III of C#Cc1cccc(CN2CCN(CC(=O)O)CCN(Cc3cc(C(=O)OC(C)C)cc(CN=[N+]=[N-])n3)CCN(CC(=O)O)CC2)n1 noted as 54

Lab book: conversion to 1,5-cz-[Ln(Lig)], Yb^III of C#Cc1cccc(CN2CCN(CC(=O)O)CCN(Cc3cc(-c4ccc(C(=O)O)cc4)cc(CN=[N+]=[N-])n3)CCN(CC(=O)O)CC2)n1 noted as 55

Lab book: conversion to 1,5-cz-[Ln(Lig)], Yb^III of [N-]=[N+]=NCc1cc(-c2ccccc2)cc(CN2CCN(CC(=O)O)CCN(Cc3cccc(C#CCN)n3)CCN(CC(=O)O)CC2)n1 noted as 38

Others:
Lab book: conversion to 1,5-cz-[Ln(Lig)], Yb^III of [N-]=[N+]=NCc1cccc(CN2CCN(CC(=O)O)CCN(Cc3cccc(C#CI)n3)CCN(CC(=O)O)CC2)n1 noted as 15

Lab book: conversion to 1,5-cz-[Ln(Lig)], Yb^III of [N-]=[N+]=NCc1cccc(CN2CCN(CC(=O)O)CCN(Cc3cccc(C#CC4CCNCC4)n3)CCN(CC(=O)O)CC2)n1 noted as 10

Lab book: conversion to 1,5-cz-[Ln(Lig)], Yb^III of C#Cc1cccc(CN2CCN(CC(=O)O)CCN(Cc3cc(C(=O)OC)cc(CN=[N+]=[N-])n3)CCN(CC(=O)O)CC2)n1 noted as 24

Lab book: conversion to 1,5-cz-[Ln(Lig)], Yb^III of C#Cc1cccc(CN2CCN(CP(=O)(O)OCC)CCN(Cc3cccc(CN=[N+]=[N-])n3)CCN(CP(=O)(O)OCC)CC2)n1 noted as 12

Lab book: conversion to 1,5-cz-[Ln(Lig)], Yb^III of [N-]=[N+]=NCc1cccc(CN2CCN(CC(=O)O)CCN(Cc3cccc(C#CC4CC4)n3)CCN(CC(=O)O)CC2)n1 noted as 3

Lab book: conversion to 1,5-cz-[Ln(Lig)], Yb^III of C#Cc1cccc(CN2CCN(CCC(=O)O)CCN(Cc3cccc(CN=[N+]=[N-])n3)CCN(CCC(=O)O)CC2)n1 noted as 0
